- Tested On: human GLP-1R (Homo sapiens (Human), UniProt P43220, L260F)
- Sequence (P43220 24-463 L260F): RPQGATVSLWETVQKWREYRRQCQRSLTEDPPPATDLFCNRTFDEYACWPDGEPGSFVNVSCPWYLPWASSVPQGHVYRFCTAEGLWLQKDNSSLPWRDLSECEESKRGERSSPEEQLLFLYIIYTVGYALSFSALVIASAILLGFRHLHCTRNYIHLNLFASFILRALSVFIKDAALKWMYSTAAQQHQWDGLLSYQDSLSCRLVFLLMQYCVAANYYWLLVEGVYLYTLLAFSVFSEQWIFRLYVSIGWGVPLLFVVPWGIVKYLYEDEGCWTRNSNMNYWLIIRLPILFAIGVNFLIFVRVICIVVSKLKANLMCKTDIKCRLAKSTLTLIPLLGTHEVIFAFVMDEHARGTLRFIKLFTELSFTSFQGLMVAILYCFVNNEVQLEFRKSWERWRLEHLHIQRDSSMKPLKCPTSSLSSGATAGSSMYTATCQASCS
- Assay Method Text: CHO GLP-1R Clone C6—Assay 2: HTRF cAMP cell-based functional agonist assay (low GLP-1R density)
- Condition Summary: CHO GLP-1R Clone C6, cAMP HTRF; geometric mean
Decide using EC50 alone. Strictly below 300 nM: 1. Equal to or above 300 nM: 0.

Compound	Class Name
N#Cc1ccc(COc2nc(C3CCN(Cc4nc5ccc(C(=O)O)cc5n4C[C@@H]4CCO4)CC3)ccc2F)cc1 [Example 10A-55]	1
Cn1cncc1Cn1c(CN2CCC(c3cccc(OCc4ccc(C#N)cc4F)n3)CC2)nc2ccc(C(=O)O)nc21 [Example 10A-76]	1
COC1(Cn2c(CN3CCC(c4cccc(OCc5ccc(Cl)cc5F)n4)CC3)nc3ccc(C(=O)O)cc32)CCC1 [Example 10A-26]	1
Cn1cncc1Cn1c(CN2CCN(c3cccc(OCc4ccc(Cl)cc4F)n3)CC2)nc2ccc(C(=O)O)cc21 [Example 10A-36]	1
N#Cc1ccc(COc2cccc(C3CCN(Cc4nc5ccc(C(=O)O)cc5n4CC4CCCO4)CC3)n2)cc1 (single isomer, unassigned; enantiomer 1) [Example 14A-01]	1
C[C@H]1CN(c2cccc(OCc3ccc(Cl)cc3F)n2)CCN1Cc1nc2ccc(C(=O)O)cc2n1Cc1cnco1 [Example 10A-16]	1
C[C@H]1CN(c2cccc(OCc3ccc(Cl)cc3F)n2)CCN1Cc1nc2ccc(C(=O)O)cc2n1Cc1cnnn1C [Example 10A-22]	1
O=C(O)c1ccc2nc(CN3CCC(c4cccc(OCc5ccc(Cl)cc5F)n4)CC3)n(C3CCOC3)c2c1 (stereo not drawn) [Example 11A-26]	0
COCCn1c(CN2CCN(c3ccc(F)c(OCc4ccc(C#N)cc4)n3)C[C@@H]2C)nc2ccc(C(=O)O)cc21 [Example 1A-08]	1
COCCn1c(CN2CC[C@@H](c3cccc(OCc4ccc(Cl)cc4F)n3)[C@H](F)C2)nc2ccc(C(=O)O)cc21 (racemic) [Example 1A-22]	0
O=C(O)c1ccc2nc(CN3CCC(c4cccc(OCc5ccc(Cl)cc5F)n4)CC3)n(Cc3c[nH]nn3)c2c1 [Example 11A-23]	0
CCn1cncc1Cn1c(CN2CCN(c3cccc(OCc4ccc(C#N)cc4F)n3)CC2)nc2ccc(C(=O)O)cc21 [Example 10A-35]	1
N#Cc1ccc(COc2cccc(N3CCN(Cc4nc5ccc(C(=O)O)cc5n4Cc4ncco4)CC3)n2)c(F)c1 [Example 10A-34]	1
Cn1c(CN2CCC(c3cccc(OCc4ccc(C#N)cc4)n3)CC2)nc2ccc(C(=O)O)cc21 [Example 9A-15]	0
CO[C@H]1CCC[C@H]1Cn1c(CN2CCC(c3cccc(OCc4ccc(Cl)cc4F)n3)CC2)nc2ccc(C(=O)O)cc21 (racemic) [Example 1A-29]	0
COCCn1c(CN2CCN(c3cccc(OCc4ccc(C#N)cc4)n3)CC2)nc2ccc(C(=O)O)cc21 [Example 1A-11]	0
CC1(Cn2c(CN3CCC(c4cccc(OCc5ccc(Cl)cc5F)n4)CC3)nc3ccc(C(=O)O)cc32)CCOC1 (stereo not drawn) [Example 11A-14]	1
N#Cc1ccc(COc2cccc(C3CCN(Cc4nc5ccc(C(=O)O)nc5n4Cc4ncco4)CC3)n2)c(F)c1 [Example 2A-19]	1
O=C(O)c1ccc2nc(CN3CCC(c4cccc(OCc5ccc(Cl)cc5F)n4)CC3)n(C[C@@H]3CCCO3)c2c1 [Example 10A-73]	1
O=C(O)c1ccc2nc(CN3CCC(c4cccc(OCc5ccc(F)cc5F)n4)CC3)n(Cc3cnco3)c2c1 [Example 10A-44]	1
CCOC(C)Cn1c(CN2CCC(c3cccc(OCc4ccc(Cl)cc4F)n3)CC2)nc2ccc(C(=O)O)cc21 (stereo not drawn) [Example 11A-18]	1
N#Cc1ccc(COc2nc(C3CCN(Cc4nc5ccc(C(=O)O)cc5n4C[C@@H]4CCO4)CC3)ccc2F)c(F)c1 [Example 10A-54]	1
COCCn1c(CN2CCC(c3cccc(OCc4ccc(Cl)cc4F)n3)CC2C)nc2ccc(C(=O)O)cc21 (single isomer, unassigned) [Example 13A-03]	1
Cn1cnnc1Cn1c(CN2CCC(c3cccc(OCc4ccc(Cl)cc4F)n3)CC2)nc2ccc(C(=O)O)cc21 [Example 11A-71]	0
CC(F)(F)Cn1c(CN2CCC(c3cccc(OCc4ccc(Cl)cc4F)n3)CC2)nc2ccc(C(=O)O)cc21 [Example 11A-27]	0
O=C(O)c1ccc2nc(CN3CCN(c4cccc(OCc5ccc(Cl)cc5F)n4)CC3)n(C[C@@H]3CCO3)c2c1 [Example 10A-08]	1
N#Cc1ccc(COc2cccc(C3CCN(Cc4nc5ccc(C(=O)O)cc5n4C[C@@H]4CCO4)CC3)n2)cc1 [Example 10A-78]	1
